biological target: GABAA receptor ([35S]-TBPS binding, rat brain cortical membranes); test: Steroid inhibition of [35S]-TBPS binding; details: Table II-2, 3 nM [35S]-TBPS, in the presence of 5 mM GABA, read-out: TBPS IC50
pIC50: −log10 of the molar value.
metric-name: pIC50

Some entries whose results are on file:
• CCOC[C@@]1(O)CC[C@@]2(CC)[C@H](CC[C@H]3[C@@H]4CC[C@H](C(=O)Cn5cc(C#N)cn5)[C@@]4(C)CC[C@@H]32)C1 = > 8.00
• CCOC[C@@]1(O)CC[C@@]2(CC)[C@@H](CC[C@H]3[C@@H]4CC[C@H](C(=O)Cn5ccc(C#N)n5)[C@@]4(C)CC[C@@H]32)C1 = 7.00 to 8.00
• CC[C@]12CC[C@@](C)(O)C[C@H]1CC[C@H]1[C@@H]3CC[C@H](C(=O)Cn4cc(C#N)cn4)[C@@]3(C)CC[C@@H]12 = > 8.00
• CC[C@]12CC[C@@](C)(O)C[C@H]1CC[C@H]1[C@@H]3CC[C@H](C(N)=O)[C@@]3(C)CC[C@@H]12 = 6.00 to 7.00

I have 3 compounds here; please give me pIC50 for each one.
1. CCOC[C@@]1(O)CC[C@@]2(CC)[C@H](CC[C@H]3[C@@H]4CC[C@H](C(=O)N5CCCC[C@H]5c5ccc(F)cc5)[C@@]4(C)CC[C@@H]32)C1
2. CC[C@]12CC[C@@](C)(O)C[C@@H]1CC[C@H]1[C@@H]3CC[C@H](C(=O)Cn4ccnn4)[C@@]3(C)CC[C@@H]12
3. CC[C@]12CC[C@@](C)(O)C[C@@H]1CC[C@H]1[C@@H]3CC[C@H](C(=O)Cn4cccn4)[C@@]3(C)CC[C@@H]12

["7.00 to 8.00", "> 8.00", "7.00 to 8.00"]
